target: Tyrosine-protein kinase JAK3 (Homo sapiens); settings: at 0.1 µM;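 note: values reported are mean percent inhibition of JAK3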
quantity measured: inhibition (%)
Lab book: enter the figure in %, no units written.

Some entries whose results are on file:
Which inhibition value belongs to CNC(=O)c1cncc(/C=C/c2c(Cl)cccc2Cl)c1 ? -4.61

Moving on to the next compound: COC(=O)Nc1nc2cc(Oc3ccc(NC(=O)Nc4cccc(C(=O)O)c4)cc3)ccc2[nH]1 -3.56

Moving on to the next compound: CC1=C(C(=O)Nc2ccc3[nH]ncc3c2)C(c2ccc3ccccc3c2)CC(=O)N1 (stereo not given) 0.88

Moving on to the next compound: CCc1cccc(NC(=O)Nc2ccc(Oc3ccc4nc(NC(=O)OC)[nH]c4c3)cc2)c1 -1.05

Consider now this further compound.
Which inhibition value belongs to N#Cc1c(NC(=O)c2cccc3ccccc23)sc2c1CCCC2 ? -0.84
